- Protocol Text: basal HepG2 mitochondrial membrane potential changes, profiling panel, cell-based, JC-1 fluorescence, 24 h, 100 nL compound (AID 1167); also: test concentration not given here
- Measurement Context: higher = more signal
Task for the reader: assign each of the following compounds its reported z-score.
Give a plain numeric answer without units written out.

Prompt: Could you share which z-score value was measured for C[C@@H]1CC[C@H]2C(=O)OC(Cc3ccccc3)CN2[C@H]1c1ccc(Br)cc1 (some centres undefined) ?
Completion: 1.34

Prompt: Could you share which z-score value was measured for CC(CCN1CCCCc2nc(C)c(C)cc21)=NO[C@@H](C)c1cc(-c2c(C)cc(C)cc2C)no1 ?
Completion: 4

Prompt: Could you share which z-score value was measured for O=C1[C@H]2[C@H]3[C@H](O)[C@H](O)CC(=NO[C@@H]4O[C@H](CO)[C@@H](O)[C@H](O)[C@H]4O)[C@@H]3CC[C@H]2C(=O)N1C[C@@H]1CCCO1 ?
Completion: -0.42

Prompt: Could you share which z-score value was measured for CC(C)C(=O)N[C@H]1CCCN1C(=O)C=Cc1ccccc1 ?
Completion: -0.541

###

- Tested on: wheat germ agglutinin (Triticum aestivum), Alexa647-labelled
- Protocol Text: wheat germ agglutinin binders on compound microarrays, profiling panel, artefact control for SMM control-protein annotation, biochemical, small-molecule microarray, 635/667 nm fluorescence (AID 1140);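 also: score merges 667 nm feature emission with signal to noise over triplicate slides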
- Measurement Context: WGA-A647 binding, 635 nm fluorescence, higher = more signal
Test Readout: composite z-score

Prompt: Could you share which composite z-score value was measured for C#CCCCON=C1C[C@@H](O)[C@@H](O)[C@@H]2[C@@H]3C(=O)N(C[C@@H]4CCCO4)C(=O)[C@@H]3CC[C@@H]12 ?
Completion: 0.553

Prompt: Could you share which composite z-score value was measured for Cc1cc(C)c(-c2cc([C@H](C)ON=C[C@@H](C)[C@H](OCc3ccccc3)C(C)C)on2)c(C)c1 ?
Completion: 0.528

Prompt: Could you share which composite z-score value was measured for O=C1[C@H]2[C@H]3[C@H](O)[C@H](O)CC(=NOC[C@@H](O)COCc4ccco4)[C@@H]3CC[C@H]2C(=O)N1Cc1ccccc1 ?
Completion: 0.265

Prompt: Could you share which composite z-score value was measured for CC(CCN1CCc2nc(-c3ccccc3)c(-c3ccccc3)cc2C1)=NOC(C)CN1CCCc2nc(C)c(C)cc21 (configuration not stated) ?
Completion: 0.379

Prompt: Could you share which composite z-score value was measured for O=C(NN=C1C[C@@H](O)[C@@H](O)[C@@H]2[C@@H]3C(=O)N(Cc4ccc5c(c4)OCO5)C(=O)[C@@H]3CC[C@@H]12)OCc1ccccc1 ?
Completion: 0.227

Prompt: Could you share which composite z-score value was measured for C=CC[C@@H]1C=C[C@H](ON=C(C)CCN2CCCCc3nc(C)c(C)cc32)[C@@H](CO)O1 ?
Completion: 0.607

Prompt: Could you share which composite z-score value was measured for CCOC(=O)[C@H](Cc1ccccc1)NC(=O)CCC1CC(OC(=O)NCc2cccc3ccccc23)CC2(CCCC(COC(=O)NCc3ccc4c(c3)OCO4)O2)O1 (some centres not stated) ?
Completion: -0.074

###

- Protocol Text: S. cerevisiae growth modulation with rapamycin, primary screen, strain BY4716, OD600, 96 h (AID 1091); also: test concentration not given here
- Measurement Context: higher = more signal, called active from +8 up or from −8 down
Active and inactive are the calls of the source.
Test Readout: z-score

Prompt: Could you share which z-score value was measured for C[C@H]1CC[C@@H](C(=O)O)N[C@@H]1c1cccc(N2CCCC2=O)c1 ?
Completion: 0.374 (inactive)

Prompt: Could you share which z-score value was measured for CO[C@@H]1COC(=O)[C@H](COCc2ccccc2)NC(=O)CC=C[C@@H](C)[C@H](OC)COC(=O)[C@@H](C)NC(=O)CC=C[C@H]1C ?
Completion: 0.55 (inactive)

Prompt: Could you share which z-score value was measured for CC(C)CON=C1C[C@@H](O)[C@@H](O)[C@@H]2[C@@H]3C(=O)N([C@@H](C)c4ccccc4)C(=O)[C@@H]3CC[C@@H]12 ?
Completion: -0.188 (inactive)

Prompt: Could you share which z-score value was measured for CCN1C(=O)[C@H]2[C@H]3[C@H](O)[C@H](O)CC(=NOCC[C@@H]4C=C[C@H](OC(C)=O)[C@@H](COC(C)=O)O4)[C@@H]3CC[C@H]2C1=O ?
Completion: 0.0739 (inactive)

Prompt: Could you share which z-score value was measured for CCc1cc2c(nc1CC)CCN(CCC(C)=NO[C@@H]1O[C@H](COC(C)=O)[C@@H](OC(C)=O)[C@H](OC(C)=O)[C@H]1OC(C)=O)C2 ?
Completion: 0.143 (inactive)

Prompt: Could you share which z-score value was measured for CC(=O)OC[C@H]1O[C@H](CC=NO[C@@H](C)c2cc(-c3c(C)cc(C)cc3C)no2)C=C[C@@H]1OC(C)=O ?
Completion: 0.523 (inactive)

Prompt: Could you share which z-score value was measured for CCN1C(C)=C(C(=O)OC)[C@@H](c2ccccc2)N2C(=O)[C@](O)(C(=O)OC)CC(C(C)=O)=C12 ?
Completion: 0.712 (inactive)
